Values compiled from ChEMBL document CHEMBL2057095.

System: Mus musculus
Experiment: Clearance in mouse at 10 mg/kg, po and 3 mg/kg, iv
Assay type: ADME, organism-based
Settings: in vivo
Measurement name: CL (L/h/kg)

Structure smiles	Measurement unit	CL
O=C1CCCN1c1cc(Cc2n[nH]c(=O)c3c2NCCC3)ccc1F	L/h/kg	7.43

1. O=C(c1cc(Cc2n[nH]c(=O)c3c2CCCC3)ccc1F)N1CCN(c2ccccn2)CC1
2. O=C1CCCN1c1cc(Cc2n[nH]c(=O)c3c2CCCC3)ccc1F
Kindly compare 1 with 2 and tell me which has the lower CL figure. Which one? Tell me its label.
1

----------
Experiment: Half life in mouse at 3 mg/kg, iv
Type: ADME, organism-based
Set-up: dose 3 mg/kg, route intravenous
Conditions: in vivo
Measurement name: half-life (min)

Structure smiles	half-life (min)
O=C(c1cc(Cc2n[nH]c(=O)c3c2CCCC3)ccc1F)N1CCN(c2ncccn2)CC1	21.6

a. O=C(c1cc(Cc2n[nH]c(=O)c3c2CCCC3)ccc1F)N1CCN(c2ccccn2)CC1
b. O=C(c1cc(Cc2n[nH]c(=O)c3c2NCCC3)ccc1F)N1CCN(c2ccccn2)CC1
Select one. Lower half-life: a or b Please respond with the label that marks your chosen entry.
a
